Biological target: AHR (Homo sapiens, UniProt P35869)
Construct: U87 MG glioblastoma cells (ATCC #HTB-14) endogenously expressing AHR; endogenous in cells; host or cells: U87 MG glioblastoma cells (ATCC #HTB-14)
Sequence (P35869 11-848): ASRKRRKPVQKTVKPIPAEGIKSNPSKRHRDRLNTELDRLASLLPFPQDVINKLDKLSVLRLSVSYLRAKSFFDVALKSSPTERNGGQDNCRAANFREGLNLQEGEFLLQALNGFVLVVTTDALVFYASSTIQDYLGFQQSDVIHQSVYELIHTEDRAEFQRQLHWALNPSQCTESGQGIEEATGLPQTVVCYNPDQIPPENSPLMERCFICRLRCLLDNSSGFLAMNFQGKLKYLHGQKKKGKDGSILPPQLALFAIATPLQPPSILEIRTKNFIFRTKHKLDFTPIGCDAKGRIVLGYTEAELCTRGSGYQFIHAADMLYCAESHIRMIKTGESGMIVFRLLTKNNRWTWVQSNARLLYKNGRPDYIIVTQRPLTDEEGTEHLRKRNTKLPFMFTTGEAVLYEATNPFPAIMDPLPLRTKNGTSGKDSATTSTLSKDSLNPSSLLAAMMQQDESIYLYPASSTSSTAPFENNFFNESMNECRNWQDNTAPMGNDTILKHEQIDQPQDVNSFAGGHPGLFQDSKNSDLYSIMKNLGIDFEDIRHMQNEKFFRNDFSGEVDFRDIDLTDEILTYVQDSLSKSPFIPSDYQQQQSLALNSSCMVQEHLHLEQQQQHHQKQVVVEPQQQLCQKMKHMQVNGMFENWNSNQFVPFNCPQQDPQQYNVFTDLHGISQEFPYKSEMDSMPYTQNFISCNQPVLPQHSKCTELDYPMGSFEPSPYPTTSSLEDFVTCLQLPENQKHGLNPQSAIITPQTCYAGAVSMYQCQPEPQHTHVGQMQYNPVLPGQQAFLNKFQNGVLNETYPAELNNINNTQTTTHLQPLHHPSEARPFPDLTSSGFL
Assay: In vitro assay 1: antagonism in human cell line (AHR transactivation, firefly luciferase reporter, kynurenic acid prestimulated)
Type: cell-based
Conditions: AHR Antagonism Human IC50 [M]
Some compounds, each annotated with its measured IC50.

>  <COMPOUND>
COc1ccc(-c2nc3c4cc(F)ccc4nc(N[C@@H]4CNCCNC4=O)n3n2)cc1 [Example 277]

>  <IC50>
> 2e-05 M

$$$$
>  <COMPOUND>
O=C1NCCCC[C@H]1Nc1nc2ccccc2c2nc(-c3cc(Br)ccc3OC(F)(F)F)nn12 [Example 505]

>  <IC50>
> 2e-05 M

$$$$
>  <COMPOUND>
COc1ccc(-c2nc3c4cccc(OCC(C)(F)F)c4nc(N[C@@H]4CCCCNC4=O)n3n2)cc1 [Example 668]

>  <IC50>
> 5.71e-06 M

$$$$

* * *

Biological target: UniProt P30561
Sequence (P30561 1-848 P471L/N533S/M589L): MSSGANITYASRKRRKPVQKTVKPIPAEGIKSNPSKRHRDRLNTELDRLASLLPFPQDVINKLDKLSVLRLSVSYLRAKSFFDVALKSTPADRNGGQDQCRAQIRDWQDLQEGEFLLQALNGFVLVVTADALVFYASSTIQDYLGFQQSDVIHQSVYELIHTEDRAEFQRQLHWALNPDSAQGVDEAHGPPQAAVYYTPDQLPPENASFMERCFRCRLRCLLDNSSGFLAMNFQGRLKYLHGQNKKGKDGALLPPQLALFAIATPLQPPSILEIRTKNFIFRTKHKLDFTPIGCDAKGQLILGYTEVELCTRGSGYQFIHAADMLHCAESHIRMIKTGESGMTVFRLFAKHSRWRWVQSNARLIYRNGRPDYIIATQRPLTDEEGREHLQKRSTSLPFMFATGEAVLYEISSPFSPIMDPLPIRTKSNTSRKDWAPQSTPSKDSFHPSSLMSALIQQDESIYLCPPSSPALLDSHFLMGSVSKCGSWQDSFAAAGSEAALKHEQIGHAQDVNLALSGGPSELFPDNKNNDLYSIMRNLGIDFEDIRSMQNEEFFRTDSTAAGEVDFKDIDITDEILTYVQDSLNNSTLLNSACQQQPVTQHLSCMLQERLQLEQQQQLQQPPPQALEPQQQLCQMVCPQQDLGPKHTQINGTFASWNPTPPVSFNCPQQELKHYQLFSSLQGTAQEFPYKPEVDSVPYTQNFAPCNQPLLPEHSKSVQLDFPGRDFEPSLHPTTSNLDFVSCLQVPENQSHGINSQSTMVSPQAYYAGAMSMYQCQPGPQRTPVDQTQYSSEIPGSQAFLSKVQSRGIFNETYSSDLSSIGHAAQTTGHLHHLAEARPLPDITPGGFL
Assay: In vitro assay 3: antagonism in mouse cell line (AHR transactivation, firefly luciferase reporter, kynurenic acid prestimulated)
Type: cell-based
Conditions: mouse Hepa 1c1c7 cells, 200 μM kynurenic acid, 20 hours, read-out: AHR Antagonism Mouse IC50
Under this convention, satisfied denotes IC50 strictly below 3 nM and not satisfied denotes IC50 at or above 3 nM.

>  <MOLECULE>
Cn1cc(-c2nc3c4cccc(C(F)(F)F)c4nc(NC4C(=O)NCC4(C)C)n3n2)cn1 (single isomer, unassigned; (+)) [Example 730]

>  <ANSWER LABEL>
not satisfied

$$$$
>  <MOLECULE>
COc1ccc(-c2nc3c4cc(F)ccc4nc(N[C@@H]4CCCCNC4=O)n3n2)cc1 [Example 231]

>  <ANSWER LABEL>
satisfied

$$$$
>  <MOLECULE>
COc1ccc(-c2nc3c4cccc(Cl)c4nc(N[C@@H]4CNCCNC4=O)n3n2)cc1 [Example 421]

>  <ANSWER LABEL>
satisfied

$$$$
>  <MOLECULE>
Cc1cc(-c2nc3c4ccccc4nc(N[C@@H]4CCCNC4=O)n3n2)cs1 [Example 354]

>  <ANSWER LABEL>
not satisfied

$$$$
>  <MOLECULE>
O=C1NCCCC[C@H]1Nc1nc2ccccc2c2nc(-c3cc(C(F)(F)F)cc(C(F)(F)F)c3)nn12 [Example 359]

>  <ANSWER LABEL>
not satisfied

$$$$
>  <MOLECULE>
CCC[C@@H](Nc1nc2ccccc2c2nc(-c3ccc(OC)cc3OC(F)(F)F)nn12)C(=O)NC [Example 510]

>  <ANSWER LABEL>
not satisfied

$$$$
>  <MOLECULE>
Cc1ccc2nc(N[C@@H]3CCCCNC3=O)n3nc(-c4cnn(C)c4)nc3c2c1C(F)F [Example 404]

>  <ANSWER LABEL>
not satisfied

$$$$
>  <MOLECULE>
Cn1cc(-c2nc3c4ccccc4nc(NC4CCCNC4=O)n3n2)cn1 (stereo not shown) [Example 13]

>  <ANSWER LABEL>
not satisfied

$$$$
>  <MOLECULE>
COc1ccc(-c2nc3c4cccc(C(=O)OC(C)C)c4nc(N[C@@H]4CCCCNC4=O)n3n2)cc1 [Example 653]

>  <ANSWER LABEL>
not satisfied

$$$$

* * *

Biological target: AHR (Homo sapiens)
Construct: U87 MG glioblastoma cells (ATCC #HTB-14) endogenously expressing AHR; endogenous in cells; host or cells: U87 MG glioblastoma cells (ATCC #HTB-14)
Assay: In vitro assay 1: antagonism in human cell line (AHR transactivation, firefly luciferase reporter, kynurenic acid prestimulated)
Type: cell-based
Conditions: AHR Antagonism Human IC50 [M]

>  <COMPOUND>
CN1CCCC[C@H](Nc2nc3ccccc3c3nc(-c4ccc(Cl)cc4OC(F)F)nn23)C1=O [Example 530]

>  <RESULT UNITS>
M

>  <QUAL>
>

>  <IC50>
2e-05

$$$$
>  <COMPOUND>
O=C1NCCNCC1Nc1nc2cccc(C3CC3)c2c2nc(-c3cccc(F)c3)nn12 (single isomer, unassigned) [Example 300]

>  <RESULT UNITS>
M

>  <QUAL>
>

>  <IC50>
2e-05

$$$$
>  <COMPOUND>
Cc1cscc1-c1nc2c3ccccc3nc(N[C@@H]3CCNC3=O)n2n1 [Example 541]

>  <RESULT UNITS>
M

>  <QUAL>
=

>  <IC50>
3.5e-08

$$$$
>  <COMPOUND>
NC(=O)[C@@H](CO)Nc1nc2ccccc2c2nc(-c3ccccc3OC(F)(F)F)nn12 [Example 468]

>  <RESULT UNITS>
M

>  <QUAL>
=

>  <IC50>
6.73e-08

$$$$
>  <COMPOUND>
O=C1NCC[C@H]1Nc1nc2ccccc2c2nc(-c3ccc(Cl)cc3OC(F)(F)F)nn12 [Example 520]

>  <RESULT UNITS>
M

>  <QUAL>
=

>  <IC50>
3.05e-08

$$$$
>  <COMPOUND>
CCCCNC(=O)[C@H](C)Nc1nc2ccccc2c2nc(-c3ccc(Cl)cc3OC(F)(F)F)nn12 [Example 521]

>  <RESULT UNITS>
M

>  <QUAL>
=

>  <IC50>
2.04e-08

$$$$
>  <COMPOUND>
CNC(=O)[C@@H](C)Nc1nc2ccccc2c2nc(-c3cccc(OC)c3)nn12 [Example 108]

>  <RESULT UNITS>
M

>  <QUAL>
=

>  <IC50>
5.75e-09

$$$$
>  <COMPOUND>
CS(=O)(=O)c1ccc(-c2nc3c4cccc(Br)c4nc(N[C@H]4CCCCNC4=O)n3n2)cc1 [Example 680]

>  <RESULT UNITS>
M

>  <QUAL>
=

>  <IC50>
3.93e-08

$$$$
>  <COMPOUND>
CCCCNC(=O)[C@@H](C)Nc1nc2c(Br)cccc2c2nc(-c3ccc(Cl)cc3OC(F)F)nn12 [Example 684]

>  <RESULT UNITS>
M

>  <QUAL>
=

>  <IC50>
3.39e-09

$$$$
>  <COMPOUND>
CCNC(=O)[C@@H](C)Nc1nc2ccccc2c2nc(-c3cccc(OC)c3)nn12 [Example 107]

>  <RESULT UNITS>
M

>  <QUAL>
=

>  <IC50>
1.06e-08

$$$$
>  <COMPOUND>
O=C1NCCCC[C@H]1Nc1nc2ccccc2c2nc(-c3ccccn3)nn12 [Example 124]

>  <RESULT UNITS>
M

>  <QUAL>
=

>  <IC50>
2.83e-08

$$$$
>  <COMPOUND>
C[C@@H](Nc1nc2ccccc2c2nc(-c3ccc(S(C)(=O)=O)cc3)nn12)C(=O)NCCN(C)C [Example 774]

>  <RESULT UNITS>
M

>  <QUAL>
=

>  <IC50>
2.26e-06

$$$$
>  <COMPOUND>
Cc1sccc1-c1nc2c3ccccc3nc(N[C@H]3CCCCNC3=O)n2n1 [Example 347]

>  <RESULT UNITS>
M

>  <QUAL>
=

>  <IC50>
1.17e-07

$$$$
>  <COMPOUND>
COc1cccc(-c2nc3c4ccccc4nc(NC4(C(N)=O)CCCC4)n3n2)c1 [Example 99]

>  <RESULT UNITS>
M

>  <QUAL>
=

>  <IC50>
6.78e-08

$$$$
>  <COMPOUND>
O=C1NCCCC[C@H]1Nc1nc2ccccc2c2nc(-c3cncc(Cl)c3)nn12 [Example 480]

>  <RESULT UNITS>
M

>  <QUAL>
=

>  <IC50>
2.07e-08

$$$$
>  <COMPOUND>
COc1cscc1-c1nc2c3ccccc3nc(N[C@@H]3CCN(C)C3=O)n2n1 [Example 337]

>  <RESULT UNITS>
M

>  <QUAL>
=

>  <IC50>
1.71e-06

$$$$
>  <COMPOUND>
O=C1NCCCC[C@H]1Nc1nc2c(C(F)(F)F)cccc2c2nc(-c3cnn(CC4CCC4)c3)nn12 [Example 744]

>  <RESULT UNITS>
M

>  <QUAL>
=

>  <IC50>
1.69e-09

$$$$
>  <COMPOUND>
Nc1ccc(-c2nc3c4ccccc4nc(N[C@@H]4CCCCNC4=O)n3n2)cn1 [Example 637]

>  <RESULT UNITS>
M

>  <QUAL>
=

>  <IC50>
1.15e-08

$$$$
>  <COMPOUND>
O=C1NCCC[C@H]1Nc1nc2ccccc2c2nc(-c3ccccc3OC(F)F)nn12 [Example 472]

>  <RESULT UNITS>
M

>  <QUAL>
=

>  <IC50>
3.72e-08

$$$$
>  <COMPOUND>
Cc1cc(-c2nc3c4ccccc4nc(N[C@@H]4CCCCNC4=O)n3n2)cs1 [Example 352]

>  <RESULT UNITS>
M

>  <QUAL>
=

>  <IC50>
9.72e-10

$$$$
